tested on: MOLT-4 leukemia; experiment: NCI-60 one-dose screen, 48 h; details: 10 µM unless noted
Compounds without any hit were thinned out: in the full panel of roughly 83,000, 20% have a hit. Active and inactive are the calls of the source. Rule for the calls: active = growth percent below 10; inactive = the rest.
Outcome field: choose from active, inactive

Exercise: Status in this test for COc1cccc(/C=C/c2nc3ccccc3c(=O)n2CC(=O)Nc2ccccc2)c1 ?
Key: inactive

Exercise: Status in this test for CCCSc1nnc(-c2sc3nc4ccccc4n3c2C)o1 ?
Key: inactive

Exercise: Status in this test for CCOc1ccccc1[C@H]1C(C(=O)c2ccc(Cl)cc2)C2(N[C@@H]1c1ccccc1)C(=O)Nc1ccc(Br)cc12 (some centres not stated) ?
Key: active

Exercise: Status in this test for O=C(NN1C(=O)/C(=C/C=C/c2ccc([N+](=O)[O-])o2)SC1=S)c1ccc(O)cc1 ?
Key: active

Exercise: Status in this test for O=C(N/N=C/c1ccc(-c2cccc([N+](=O)[O-])c2)s1)c1[nH]c2ccc(Br)cc2c1-c1ccccc1 ?
Key: inactive

Exercise: Status in this test for CCCCCCCCc1ccc(C(=O)Nc2cccc(O)c2)cc1 ?
Key: inactive

Exercise: Status in this test for COc1cc(/C=C/C(=O)c2cnn(-c3cc(=O)[nH]c4ccc(Br)cc34)c2C)cc(OC)c1OC ?
Key: active

Exercise: Status in this test for O=C(c1ccc(O)cc1)C1[C@H](c2ccccc2Br)[C@@H](c2ccccc2)NC12C(=O)Nc1ccccc12 (some centres not stated) ?
Key: active

Exercise: Status in this test for CS(=O)(=O)Nc1cccc(-n2cnc3cc(-c4ccc(O)cc4)ccc32)c1 ?
Key: inactive

Exercise: Status in this test for O=C1c2cccc3c(N4CCN(c5ccccc5)CC4)ccc(c23)C(=O)N1c1cccc(-c2nn(-c3ccccc3)cc2-c2nc3ccccc3s2)c1 ?
Key: inactive

Exercise: Status in this test for COc1cc(CNC(=O)C[C@H](C)CCC=C(C)C)ccc1OCc1cn(-c2ccc(Cl)c(Cl)c2)nn1 ?
Key: inactive

Exercise: Status in this test for COc1cc(/C=N/NC(=O)c2ccc(OCc3nc4ccc(C)cc4[nH]3)cc2)cc(OC)c1OC ?
Key: active

Exercise: Status in this test for CC(=O)c1ccc2c(N)c(C(=O)Nc3ccc(C(F)(F)F)cc3)sc2n1 ?
Key: inactive

Exercise: Status in this test for Cc1ccc(C(=O)Nc2cccc(C(=O)NC(=S)Nc3ccc(S(N)(=O)=O)cc3)c2)cc1 ?
Key: inactive

Exercise: Status in this test for N#Cc1c(-c2ccc(F)cc2)nc(SCc2ccccc2)nc1N1CCNCC1 ?
Key: active

Exercise: Status in this test for Cc1nn(-c2ccccc2)c2nc(C)n(CC(=O)N/N=C/c3cccc([N+](=O)[O-])c3)c(=O)c12 ?
Key: inactive

Exercise: Status in this test for COc1ccc(-c2nc3ccc(-c4nnc(SCC(=O)Nc5ccc(/C(C)=N\O)cc5)o4)cc3[nH]2)cc1 ?
Key: inactive

Exercise: Status in this test for COC(=O)c1c(C(=O)OC)c2c3ccccc3c3ccccc3n2c1C(=O)C(F)(F)F ?
Key: inactive

Exercise: Status in this test for COc1cncc(-c2ccc3ncnc(N4CCc5ccc(Cl)cc54)c3c2)c1 ?
Key: active

Exercise: Status in this test for Cc1cccc(C)c1Nc1nnc(-c2c[nH]c3ccccc23)o1 ?
Key: inactive

Exercise: Status in this test for CN(C)CCCc1ccc(Nc2cnn(C)c(=O)c2Cl)cc1 ?
Key: inactive

Exercise: Status in this test for COC(=O)c1c(C(=O)OC)c2ccc3c4ccccc4ccc3n2c1C(=O)C(C)Br (configuration not stated) ?
Key: active

Exercise: Status in this test for CC(=O)Nc1ccc(S(=O)(=O)Nc2ccc(-c3ccc4c(c3)NC(=O)/C4=C\c3ccc[nH]3)cc2)cc1 ?
Key: inactive

Exercise: Status in this test for CCCn1c(NC(=O)c2cccc(C(N)=O)c2)nc2ccc(CN3CCCCC3)cc21 ?
Key: inactive

Exercise: Status in this test for Cn1cc(-c2cc(N)n3nc(-c4c[nH]c5ccccc45)cc3n2)c2ccccc21 ?
Key: active

Exercise: Status in this test for Cc1ccc(-c2cc(C(=O)N=Nc3c(O)[nH]c4ccc(F)cc34)c3ccccc3n2)cc1 ?
Key: inactive

Exercise: Status in this test for COc1ccc(N=Nc2c(N)nn3c(-c4ccc5c(c4)C=S=C5)ccnc23)cc1 ?
Key: inactive

Exercise: Status in this test for COc1ccc(NC2=C(I)C(=O)C(C)=C(C)C2=O)cc1 ?
Key: active

Exercise: Status in this test for NC(=Nc1ccc(OCCCCCCCCn2cnnn2)cc1)c1ccccc1 ?
Key: inactive

Exercise: Status in this test for COc1ccc(-c2cc(C(=O)Oc3ccc(C=O)cc3OC)nn2-c2ccc(S(C)(=O)=O)cc2)cc1 ?
Key: inactive

Exercise: Status in this test for Cc1ccc(C(=O)Nc2cc(-n3ccnc3C)cc(C(F)(F)F)c2)cc1C#Cc1cnc2cccnn12 ?
Key: active

Exercise: Status in this test for O=C(Nc1ccc(-c2ccc3c(c2)NC(=O)/C3=C\c2ccc[nH]2)cc1)Nc1ccc(Cl)c(C(F)(F)F)c1 ?
Key: active

Exercise: Status in this test for Cn1cc(-c2cc(N)n3nc(-c4c[nH]c5ccc(Cl)cc45)cc3n2)c2cc(Br)cnc21 ?
Key: active

Exercise: Status in this test for CC(C)(C)c1cc(-c2cc(-c3ccccc3)[nH]c(=O)c2C#N)cc(C(C)(C)C)c1 ?
Key: inactive

Exercise: Status in this test for CN1CCc2c(sc3ncnc(N/N=C/c4cccc(Cl)c4Cl)c23)C1 ?
Key: active

Exercise: Status in this test for Cc1ccc(S(=O)(=O)N(CCn2ccnc2[N+](=O)[O-])CCn2ccnc2[N+](=O)[O-])cc1 ?
Key: inactive

Exercise: Status in this test for ClC(Cn1ncc2c(Nc3cccc(Br)c3)nc(SCCN3CCOCC3)nc21)c1ccc(Br)cc1 (configuration not stated) ?
Key: active

These data points were gathered from PubChem BioAssay (NCI).
